- targetDesc: Luciferin 4-monooxygenase (Photinus pyralis)
- Sequence (P08659 whole entry): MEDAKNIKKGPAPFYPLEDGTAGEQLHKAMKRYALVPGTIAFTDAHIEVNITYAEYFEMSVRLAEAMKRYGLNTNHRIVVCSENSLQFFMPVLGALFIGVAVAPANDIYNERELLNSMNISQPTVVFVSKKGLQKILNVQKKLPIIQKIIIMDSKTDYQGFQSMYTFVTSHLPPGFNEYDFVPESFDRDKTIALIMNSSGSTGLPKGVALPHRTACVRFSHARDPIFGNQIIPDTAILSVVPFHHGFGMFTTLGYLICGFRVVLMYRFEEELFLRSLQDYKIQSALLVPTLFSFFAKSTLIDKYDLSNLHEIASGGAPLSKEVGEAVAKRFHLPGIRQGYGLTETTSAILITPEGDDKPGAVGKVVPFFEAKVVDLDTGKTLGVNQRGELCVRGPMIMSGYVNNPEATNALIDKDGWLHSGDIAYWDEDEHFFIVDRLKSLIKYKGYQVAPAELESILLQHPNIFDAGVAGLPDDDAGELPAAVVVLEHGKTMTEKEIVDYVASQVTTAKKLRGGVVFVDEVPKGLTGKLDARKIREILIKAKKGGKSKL
- experimentalProtocol: firefly luciferase enzyme inhibitors, dose response, biochemical, luminescence (AID 1891)
The source made the active and inactive calls.
propertyLabel: EC50

# count of solved cases: 3
1) CC(C)(C)C1CCc2c(sc(NC(=O)c3cc(C4CC4)on3)c2C#N)C1 (stereo not given); > 112 µM (not active)
2) Cc1cc(=O)oc2cc(OCCSCCN3CCOCC3)ccc12; > 112 µM (not active)
3) CC(C)CNC(=O)COc1ccccc1[N+](=O)[O-]; > 112 µM (not active)

For each of the compounds below, state EC50.
1. COC(=O)C1(C)CN(S(=O)(=O)c2ccc(C)cc2)c2cc(OC)ccc2C1=O (stereo not given)
2. COc1cccc(-c2noc(-c3cccs3)n2)c1

1. > 112 µM (not active)
2. 7.26 µM (active)

* * *

- experimentalProtocol: cells
- Assay type: functional
The source made the active and inactive calls.
propertyLabel: IC50

# count of solved cases: 3
1. COc1ccc(CN2C(=O)/C(=C/c3ccncc3)SC2=S)cc1; 21.2 µM (active)
2. O=C(C/C=N\OCc1ccc([N+](=O)[O-])cc1)Nc1ccccc1; 16.1 µM (active)
3. CCn1c(NC(=O)C2CCCCC2)nc2ccccc21; 1.33 µM (active)

Now for a further compound.
Kindly indicate its recorded IC50. Item: CCOC(=O)COn1c2c(c3c4no[n+]([O-])c4ccc31)CCCC2
5.49 µM (active)

* * *

- targetDesc: Endoribonuclease toxin MazF (Escherichia coli K-12)
- Sequence (P0AE70 whole entry): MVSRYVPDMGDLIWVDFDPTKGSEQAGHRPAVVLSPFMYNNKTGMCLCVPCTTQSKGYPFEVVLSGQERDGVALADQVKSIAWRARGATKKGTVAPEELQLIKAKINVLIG
- experimentalProtocol: fluorescent RNA oligo signal without MazF, dose response, counter-screen for MazEF activator project, biochemical, fluorescence, single-stranded RNase substrate (AID 588502)
- Type: functional
The source made the active and inactive calls.
Give measured EC50 for each item. Keep answers brief.

1. Nc1c(C(=O)NC2CCCC2)sc2nc(-c3cccs3)ccc12; 54 µM (inactive)
2. CCCCn1c(O)c(N=Nc2ccccc2O)c2ccccc21; 69.5 µM (inactive)
3. COC(=O)CSc1nc2cc(C)ccc2cc1C#N; > 99 µM (inactive)

Now for a further compound.
# return EC50 of CC(=O)n1cc(/C=C2/N=C(c3ccccc3)OC2=O)c2ccccc21 (system: Endoribonuclease toxin MazF (Escherichia coli K-12))
> 99 µM (inactive)

* * *

- targetDesc: Ubiquitin-conjugating enzyme E2 N (Homo sapiens);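 note: Dose-response confirmation in a TR-FRET assay detecting UBC13-driven polyubiquitin chain formation, inhibition measured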
- Sequence (P61088 whole entry): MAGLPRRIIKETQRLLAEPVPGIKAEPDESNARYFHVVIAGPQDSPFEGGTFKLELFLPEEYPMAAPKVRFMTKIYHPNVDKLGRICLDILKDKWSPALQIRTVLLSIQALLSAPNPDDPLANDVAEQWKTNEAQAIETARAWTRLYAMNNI
- Type: functional
Where a name gives a salt, the structure may show the parent alone. Active and inactive are the calls of the source.
Could you please pick one outcome from this set? active, inactive

1) CCCCNc1cc(C)nc(NCc2ccccc2)n1; inactive
2) CCOc1ccccc1NC(=O)CN1CCC(C(=O)c2ccc(F)cc2)CC1; active
3) COc1ccc(OCCCC(=O)Nc2ccc(S(=O)(=O)N3CCOCC3)cc2)cc1; inactive
4) CC(=O)NC(C)c1cc(Cl)c2ccccc2c1O (centres undefined); inactive

# fetch the recorded call for C1CCC(C(CC2CCCCN2)C2CCCCC2)CC1 (centres undefined) [PERHEXILINE MALEATE] here
inactive

# fetch the recorded call for O=C(N/N=C/c1ccccn1)c1cc(-c2ccccc2Cl)n[nH]1 here
inactive

# fetch the recorded call for O=C1c2cccc3cccc(c23)C(=O)N1CC1CCN(CC(O)COc2ccc3ccccc3c2)CC1 (centres undefined) here
active

# fetch the recorded call for CCC[C@@H](CN[C@@H](CNC)[C@H](C)CC)NCC1CCC(C(C)(C)C)CC1 (some centres undefined) here
inactive

# fetch the recorded call for Cc1cc(C2N=C(N)Nc3nc4ccccc4n32)c(C)n1-c1ccccc1Cl (centres undefined) here
inactive

* * *

- targetDesc: Small ubiquitin-related modifier 1 (Homo sapiens)
- Sequence (P63165 whole entry): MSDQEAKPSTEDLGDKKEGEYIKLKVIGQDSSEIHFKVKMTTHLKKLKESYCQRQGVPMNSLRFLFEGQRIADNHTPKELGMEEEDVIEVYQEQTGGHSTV
- experimentalProtocol: inhibitors of SUMO1 peptide binding, dose response, biochemical, fluorescence polarization, uHTS hits (AID 624382)
- Format: functional
- condition: read-out: IC50_Mean
Calls of active or inactive are those of the source.
Give measured IC50 for each item. Keep answers brief.

# count of solved cases: 3
1. COc1ccc(Cl)cc1Nc1nnc(-c2ccncc2)s1; > 66.6 µM (inactive)
2. C=C(C)C(=O)Nc1cccc(C2=NOC3(C2)C[C@@H](C(N)=O)N(C(=O)c2cc([N+](=O)[O-])cc([N+](=O)[O-])c2C)C3)c1 (some centres undefined); > 66.6 µM (inactive)
3. O=C(Cc1cc(=O)oc2cc(O)ccc12)NN=Cc1ccc(N(CCCl)CCCl)cc1; > 66.6 µM (inactive)

Now for a further compound.
Kindly indicate its recorded IC50. Item: COc1ccc(Cl)cc1Nc1nc(-c2sc(NC(=O)C(C)(C)C)nc2C)cs1
> 66.6 µM (inactive)

* * *

- targetDesc: UniProt:Q9QUQ5
- Sequence (Q9QUQ5 whole entry): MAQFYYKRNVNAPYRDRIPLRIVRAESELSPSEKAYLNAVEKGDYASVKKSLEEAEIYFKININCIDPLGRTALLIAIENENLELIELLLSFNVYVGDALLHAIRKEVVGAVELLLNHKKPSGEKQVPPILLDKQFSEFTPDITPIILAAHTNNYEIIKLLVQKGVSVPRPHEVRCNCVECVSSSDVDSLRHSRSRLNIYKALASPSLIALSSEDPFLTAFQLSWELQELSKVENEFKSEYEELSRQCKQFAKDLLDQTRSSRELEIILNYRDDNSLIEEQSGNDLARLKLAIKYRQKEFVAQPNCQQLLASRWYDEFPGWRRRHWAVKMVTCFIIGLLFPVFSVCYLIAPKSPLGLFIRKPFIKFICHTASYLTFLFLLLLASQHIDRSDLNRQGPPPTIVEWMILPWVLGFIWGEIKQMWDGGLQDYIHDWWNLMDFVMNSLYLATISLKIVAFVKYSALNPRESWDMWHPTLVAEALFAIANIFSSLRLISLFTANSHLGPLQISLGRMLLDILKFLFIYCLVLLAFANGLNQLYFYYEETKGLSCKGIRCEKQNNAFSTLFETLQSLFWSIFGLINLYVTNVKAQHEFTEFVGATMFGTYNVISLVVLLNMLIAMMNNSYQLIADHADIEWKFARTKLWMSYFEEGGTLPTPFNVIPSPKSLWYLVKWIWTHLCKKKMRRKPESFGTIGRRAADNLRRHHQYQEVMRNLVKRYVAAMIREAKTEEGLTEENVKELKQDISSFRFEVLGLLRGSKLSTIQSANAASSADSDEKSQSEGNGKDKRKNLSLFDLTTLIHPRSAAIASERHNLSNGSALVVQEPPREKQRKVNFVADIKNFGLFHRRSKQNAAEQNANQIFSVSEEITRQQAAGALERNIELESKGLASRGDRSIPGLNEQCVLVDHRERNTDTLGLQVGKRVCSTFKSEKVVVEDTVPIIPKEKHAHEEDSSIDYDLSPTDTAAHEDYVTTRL
- experimentalProtocol: mouse TRPC4 channel inhibitors, dose response, cell-based, HEK293 TRPC4/mu-opioid, Fluo-4 calcium (AID 434942);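 note: potency of inhibitors blocking the TRPC4 calcium response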
- Type: functional
Calls of active or inactive are those of the source.
propertyLabel: EC50

1. Cc1nc2ccccc2n1Cc1ccc(Br)cc1; 668 nM (active)
2. CCCCNCC1C(Oc2ccc(Cl)cc2)C(=O)N1c1ccccc1C (centres undefined); 4220 nM (active)
3. CCOC(=O)C1(Cc2cccc(F)c2)CCN(Cc2c(C)nn(CC)c2C)CC1; 1060 nM (active)

Now for a further compound.
Kindly indicate its recorded EC50. Item: C=CCN(CC(O)c1cccc([N+](=O)[O-])c1)C(C)CCc1ccccc1 (centres undefined)
3350 nM (active)

* * *

- targetDesc: Cytochrome P450 2C19 (Homo sapiens)
- Sequence (P33261 whole entry): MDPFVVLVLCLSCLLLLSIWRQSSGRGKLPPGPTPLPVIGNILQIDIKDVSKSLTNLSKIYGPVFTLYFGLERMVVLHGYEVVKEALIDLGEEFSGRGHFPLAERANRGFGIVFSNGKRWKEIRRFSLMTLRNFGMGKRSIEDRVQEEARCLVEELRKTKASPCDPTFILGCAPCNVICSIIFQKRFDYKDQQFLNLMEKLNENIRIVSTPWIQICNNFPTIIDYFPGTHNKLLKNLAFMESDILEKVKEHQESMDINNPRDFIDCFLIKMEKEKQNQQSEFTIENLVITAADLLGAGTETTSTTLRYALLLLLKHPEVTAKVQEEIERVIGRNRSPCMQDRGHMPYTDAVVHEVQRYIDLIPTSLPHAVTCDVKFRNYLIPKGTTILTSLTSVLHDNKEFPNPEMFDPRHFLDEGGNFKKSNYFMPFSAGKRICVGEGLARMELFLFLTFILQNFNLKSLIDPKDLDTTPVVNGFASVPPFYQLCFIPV
- experimentalProtocol: Cytochrome panel assay with activity outcomes. Panel member name: p450-cyp2c19 Compounds with AC50 equal or less than 10 uM are considered active
- Assay type: functional
- condition: read-out: AC50
Give measured AC50 for each item. Keep answers brief.

# count of solved cases: 5
1) COc1ccccc1CNc1cc(-c2cccc(NS(C)(=O)=O)c2)ncn1; 20 µM (inconclusive)
2) CNC(=O)NC(=O)CSc1nnc(-c2ccco2)n1Cc1ccccc1; 35.5 µM (inconclusive)
3) COc1ccc(C2C3=C(CC(C)(C)CC3=O)Oc3ncn(CC(C)C)c(=N)c32)cc1 (configuration not stated); 39.8 µM (inconclusive)
4) COCC(=O)N1CCC2(CC1)CN(Cc1ccccc1OC)C2; 39.8 µM (inconclusive)
5) CC(=O)NCCNc1ncnc2ccc(-c3ccccc3Cl)cc12; 20 µM (inconclusive)

For each of the compounds below, state AC50.
1. O=C(Nc1nccs1)c1sc2cc(Cl)ccc2c1Cl
2. COc1ccc(Cc2nnc(NC(=O)Cn3cnc4c3c(=O)n(C)c(=O)n4C)s2)cc1OC

1: 0.631 µM (inconclusive); 2: 28.2 µM (inconclusive)

* * *

- targetDesc: Corticotropin-releasing factor receptor 2/Corticotropin-releasing factor-binding protein (Homo sapiens, UniProt P24387+Q13324)
- Sequence (Q13324 whole entry): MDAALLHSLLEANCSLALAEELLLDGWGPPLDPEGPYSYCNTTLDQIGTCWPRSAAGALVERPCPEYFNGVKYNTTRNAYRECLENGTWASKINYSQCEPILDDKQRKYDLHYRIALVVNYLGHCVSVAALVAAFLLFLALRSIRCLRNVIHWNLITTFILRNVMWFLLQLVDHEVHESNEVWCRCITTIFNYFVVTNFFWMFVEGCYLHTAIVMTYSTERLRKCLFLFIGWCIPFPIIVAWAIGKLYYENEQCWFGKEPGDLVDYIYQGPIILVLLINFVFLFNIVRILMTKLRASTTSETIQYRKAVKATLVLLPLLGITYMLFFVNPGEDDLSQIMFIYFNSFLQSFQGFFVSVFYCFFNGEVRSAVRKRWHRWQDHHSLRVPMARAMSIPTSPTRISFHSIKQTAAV
- Sequence (P24387 whole entry): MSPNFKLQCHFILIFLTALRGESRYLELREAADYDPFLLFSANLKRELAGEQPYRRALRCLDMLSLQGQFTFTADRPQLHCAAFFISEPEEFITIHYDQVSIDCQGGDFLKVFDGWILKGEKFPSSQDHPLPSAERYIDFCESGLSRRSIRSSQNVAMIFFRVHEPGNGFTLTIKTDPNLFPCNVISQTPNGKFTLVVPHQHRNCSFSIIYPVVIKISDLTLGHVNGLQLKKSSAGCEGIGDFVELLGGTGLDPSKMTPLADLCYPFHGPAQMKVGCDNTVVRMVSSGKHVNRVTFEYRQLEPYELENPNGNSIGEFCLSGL
- experimentalProtocol: Dose Response confirmation of uHTS hits for small molecule antagonists of the CRF-binding protein and CRF-R2 receptor complex.
- Assay type: functional
- condition: read-out: IC50_Mean
Calls of active or inactive are those of the source.
Could you please pick one outcome from this set? 1 (active), -1 (inactive)

Example entries begin here.
1. COCCn1c(SCc2nnc(-c3ccccc3)o2)nc2sc3c(c2c1=O)CCC3; -1
2. CN(C)P(=O)(NC(=O)c1cccn1C)N(C)C; -1
3. CCOc1cc(-c2cn(S(=O)(=O)c3cccc4nsnc34)nc2N)cc(OCC)c1OCC; 1
4. COc1cc(C#Cc2c(-c3ccccc3)n(C)c3ccccc23)cc(OC)c1; -1
5. CC1(C)Cc2c(C#N)c(NCC3CCCO3)nc(-c3ccco3)c2CO1 (stereo not given); -1

Now let's try a different one.
# fetch the recorded call for CC(C)CN(CC(C)C)C(S)=NC1CCCCC1 here
-1

Sourced from ChEMBL document CHEMBL1201862
